Test: NCI Yeast Anticancer Drug Screen. Data for the sgs1 mgt1 strain (AID 161);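 also: 0% = growth of cultures given vehicle only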
Details: S. cerevisiae sgs1 mgt1 strain, at 50.0 µM (retest, dose inferred, filed as 5.0), hits give high values
The panel holds about 79,000 compounds, 15% with a hit somewhere; the sample as a whole holds those more often.
Decide by growth inhibition: equal to or exceeding 40% means label 1, less means label 0.

Examples with answers:
# compound, class-assignment
data = [
    ("C/C(=N\\OC(=O)c1ccccc1)[N+](=O)[O-]", "label 1"),
    ("C/C(=N/NC(=O)Nc1ccc(N=Nc2ccccc2)cc1)c1ccccn1", "label 0"),
]

Q) Answer whether growth inhibition of COc1ccc(C2c3cc4c(cc3OC(NCCO)C2C)OCO4)cc1 (stereo unspecified) is greater than or equal to 40%.
A) label 1

Q) Answer whether growth inhibition of O=C1NN=C(c2ccc(Cl)cc2)CC1C1C(=O)N(c2ccccc2)N=C1c1ccccc1 (stereo unspecified) is greater than or equal to 40%.
A) label 1

Q) Answer whether growth inhibition of CCOCCNc1ncnc2c1cnn2C is greater than or equal to 40%.
A) label 0

* * *

Experiment: NCI Yeast Anticancer Drug Screen. Data for the mec2-1 strain (AID 157)
Conditions: S. cerevisiae mec2-1 strain, at 50.0 µM (retest, dose inferred, filed as 5.0), hits give high values
About 79,000 compounds went through this panel and 15% of them were active in at least one assay; those are over-represented in the sample as a whole. Calls of active or inactive are those of the source. No stated cut-off is given here; in the data, active means growth inhibition above about 70%; inactive means the rest.
assay-readout: growth inhibition

# compound, growth inhibition
records = [
    ("CCC(c1ccc(OC)cc1)C(O)(CC)c1ccc(OC)cc1 (stereo not given)", "99% (active)"),
    ("COC1OC(CBr)C(OC(c2ccccc2)(c2ccccc2)c2ccccc2)C(OC(c2ccccc2)(c2ccccc2)c2ccccc2)C1OC(c1ccccc1)(c1ccccc1)c1ccccc1 (stereo not given)", "-27% (inactive)"),
    ("Nc1ccc(CSc2ccc(Cl)cc2)cc1Cl", "99% (active)"),
    ("CCNC(=S)N/N=C(/C)c1cccc(/C(C)=N\\NC(=S)NCC)n1", "10% (inactive)"),
    ("Brc1ccc(N=Nc2ccc(-c3ccc[cH-]3)cc2)cc1.[Fe+2].c1cc[cH-]c1", "1% (inactive)"),
]

Q) Sample CC12CCc3ccccc3C1=Nc1ccccc12 (stereo not given) — what was its growth inhibition?
A) 89% (active)

Q) Sample COc1ccc2c(c1)[n+]([O-])c(C(N)=O)c(N)[n+]2[O-] — what was its growth inhibition?
A) 100% (active)

* * *

Entries and their measured growth inhibition follow.
Assay: NCI Yeast Anticancer Drug Screen. Data for the mec2-1 strain (AID 157)
Details: S. cerevisiae mec2-1 strain, at 50.0 µM (retest, dose inferred, filed as 5.0), hits give high values
The panel holds about 79,000 compounds, 15% with a hit somewhere; the sample as a whole holds those more often.
Output spec: scalar in %, unitless text.

Worked cases, growth inhibition given:
# compound, unit-abbreviation, observed
records = [
    ("O=C([O][Sb]([O]C(=O)C(Cl)(Cl)Cl)([c]1ccccc1)([c]1ccccc1)[c]1ccccc1)C(Cl)(Cl)Cl", "%", 56),
    ("CC(=O)Nc1c([N+](=O)[O-])cc2c3c(cccc13)C=C2", "%", 47),
    ("CN(C)CCCNc1c2ccccc2nc2cccc([N+](=O)[O-])c12", "%", 99),
    ("CCCCC(CC)COC(=O)c1cc2ccccc2oc1=O (stereo not drawn)", "%", 13),
    ("CCCCCCCC[N+](C)(C)Cc1ccc(C[N+](C)(C)CCCCCCCC)cc1", "%", 26),
    ("Cc1ccc(Cc2n[nH]c(=O)n2N2C(=O)c3ccccc3C2=O)cc1", "%", 14),
    ("COC1OC(CN=[N+]=[N-])C(OC(=O)c2ccccc2)C(OC(C)=O)C1OC(C)=O (stereo not drawn)", "%", 23),
    ("O=S(=O)(O)C(O)c1ccc2ccc3cccc4ccc1c2c34 (stereo not drawn)", "%", 96),
]

Q) Sample CC(=O)Oc1c([N+](=O)[O-])cc(-c2ccccc2)cc1[N+](=O)[O-] — what was its growth inhibition?
A) 100
